- MEASURED ON: PKR/PACT (GST-PKR-Nter / His-PACT) (Homo sapiens, UniProt O75569+P19525)
- Construct: PKR 1-265 (both DRBDs, no kinase domain) with N-terminal GST; full-length PACT with N-terminal His tag; E. coli
- Sequence (P19525 1-265): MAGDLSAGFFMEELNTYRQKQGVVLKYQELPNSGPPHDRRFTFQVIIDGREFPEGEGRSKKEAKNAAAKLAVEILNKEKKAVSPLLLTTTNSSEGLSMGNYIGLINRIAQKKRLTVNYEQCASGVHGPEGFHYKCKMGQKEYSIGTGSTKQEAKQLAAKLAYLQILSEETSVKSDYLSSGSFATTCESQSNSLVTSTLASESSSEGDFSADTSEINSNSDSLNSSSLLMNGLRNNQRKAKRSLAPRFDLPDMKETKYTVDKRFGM
- Sequence (O75569 whole entry, the tested form may be a part): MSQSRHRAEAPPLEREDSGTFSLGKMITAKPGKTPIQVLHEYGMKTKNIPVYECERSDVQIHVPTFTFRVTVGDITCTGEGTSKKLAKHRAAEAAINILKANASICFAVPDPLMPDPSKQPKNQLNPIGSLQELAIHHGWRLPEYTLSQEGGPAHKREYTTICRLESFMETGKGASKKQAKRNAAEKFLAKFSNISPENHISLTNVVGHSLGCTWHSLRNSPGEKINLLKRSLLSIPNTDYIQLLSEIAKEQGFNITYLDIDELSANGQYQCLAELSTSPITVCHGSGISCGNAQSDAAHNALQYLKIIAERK
- METHOD: HTRF protein-protein interaction assay

SMILES RECORD | MEASURED ON | IC50 [µM]
O=c1c(O)c(-c2cc(O)c(O)c(O)c2)oc2cc(O)cc(O)c12 | PKR/PACT (GST-PKR-Nter / His-PACT) (Homo sapiens, UniProt O75569+P19525) | 0.6
O=c1c(O)c(-c2ccc(O)c(O)c2)oc2cc(O)cc(O)c12 | PKR/PACT (GST-PKR-Nter / His-PACT) (Homo sapiens, UniProt O75569+P19525) | 2
O=c1cc(-c2ccc(O)c(O)c2)oc2cc(O)cc(O)c12 | PKR/PACT (GST-PKR-Nter / His-PACT) (Homo sapiens, UniProt O75569+P19525) | 50

Numbers sourced from paper PMC5701060.
